Provenance of the data: PubChem BioAssay AID330

Test system: P388 leukemia ip, CD2F1 mice, survival T/C
Test: NCI In Vivo Anticancer Drug Screen. Data for tumor model P388 Leukemia (intraperitoneal) in CD2F1 (CDF1) mice
Settings: endpoint: median survival time; dose: 12.5 mg/kg/injection; schedule: Q01DX009 (ip); vehicle: saline with Tween-80; higher = longer survival
Inconclusive results and toxic doses are left out.
Collected T/C values appear next to each entry.

[O-]c1ccccc1C=NCCN1CC1.[O-]c1ccccc1C=NCCN1CC1.[Zn+2] ... 97 % of control

Query for P388 leukemia ip, CD2F1 mice, survival T/C: what T/C does the record show for Cc1cnc2c(N)cc(C)c(C)c2c1 ?
94 % of control

Missing value: T/C, P388 leukemia ip, CD2F1 mice, survival T/C, entry CC(=O)CC(=O)c1ccccc1.CC(=O)CC(=O)c1ccccc1.[Ni] . Fill in?
91 % of control

API: value(readout= T/C, system= P388 leukemia ip, CD2F1 mice, survival T/C, query= COC1CCC2=C(C1)C(=O)CC1c3ccccc3CN21 (stereo not drawn) )
100 % of control
